FYI, the data here is from the supplement of paper PMC7877785.

assay overview: self-splicing fitness, log relative to wild type (ln ratio); higher = more splicing; Tetrahymena group I intron in knt gene, E. coli kanamycin selection, DiMSum; sequences stand for … in CUCUCU…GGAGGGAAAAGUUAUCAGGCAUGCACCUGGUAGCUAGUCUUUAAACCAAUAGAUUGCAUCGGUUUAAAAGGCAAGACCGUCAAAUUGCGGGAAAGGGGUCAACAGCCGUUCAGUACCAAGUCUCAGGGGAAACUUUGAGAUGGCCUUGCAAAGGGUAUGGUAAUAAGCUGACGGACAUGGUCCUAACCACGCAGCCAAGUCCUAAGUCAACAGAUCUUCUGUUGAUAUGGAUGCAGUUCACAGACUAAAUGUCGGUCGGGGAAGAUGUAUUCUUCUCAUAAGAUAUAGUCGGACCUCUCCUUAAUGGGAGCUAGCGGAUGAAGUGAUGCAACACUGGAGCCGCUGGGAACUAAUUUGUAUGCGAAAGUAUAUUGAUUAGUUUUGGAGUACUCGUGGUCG;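 note: selection with 25 µg/mL kanamycin versus none on LB agar overnight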
experimental conditions: 30 °C
Decision: self-splicing fitness (ln) compared against -2; not below it gives Yes, below it gives No.

>>> qualitative_label("ACCUAGCAAUAUUACGAGGU")
"No"
>>> qualitative_label("CUGAAGCAAUAUUACGCAGG")
"Yes"
>>> qualitative_label("CAUGAGCAAUAUUACGCAGA")
"No"
>>> qualitative_label("UCCUAGCAAUAUUACGUAUC")
"No"
>>> qualitative_label("CGAGAGCAAUAUUACGACUA")
"No"
>>> qualitative_label("AUGUAGCAAUAUUACGGUAU")
"Yes"
>>> qualitative_label("UGACAGCAAUAUUACGGACC")
"Yes"
>>> qualitative_label("AUACAGCAAUAUUACGACAG")
"No"
>>> qualitative_label("AUGUAGCAAUAUUACGAGCU")
"Yes"
>>> qualitative_label("GUACAGCAAUAUUACGCAAC")
"No"
>>> qualitative_label("ACUGAGCAAUAUUACGAGUG")
"No"
>>> qualitative_label("GUCUAGCAAUAUUACGGCGG")
"No"
>>> qualitative_label("UCACAGCAAUAUUACGGCCG")
"Yes"
>>> qualitative_label("GGCGAGCAAUAUUACGCAUG")
"Yes"
>>> qualitative_label("GCAUAGCAAUAUUACGCAUU")
"No"
>>> qualitative_label("UGCGAGCAAUAUUACGAAGG")
"Yes"
>>> qualitative_label("UCUUAGCAAUAUUACGCUAG")
"No"
>>> qualitative_label("UGCCAGCAAUAUUACGAAUG")
"Yes"
>>> qualitative_label("CAUCAGCAAUAUUACGCUGA")
"No"
>>> qualitative_label("GGUUAGCAAUAUUACGCCAU")
"Yes"
>>> qualitative_label("CAAAAGCAAUAUUACGGGUU")
"No"
>>> qualitative_label("AAUCAGCAAUAUUACGGUAA")
"Yes"
>>> qualitative_label("GUCCAGCAAUAUUACGCACA")
"Yes"
>>> qualitative_label("UUCGAGCAAUAUUACGAAGG")
"No"
>>> qualitative_label("CACGAGCAAUAUUACGACCG")
"Yes"
>>> qualitative_label("CUCUAGCAAUAUUACGUGGU")
"No"
>>> qualitative_label("UAAUAGCAAUAUUACGCUAU")
"No"
>>> qualitative_label("UAUAAGCAAUAUUACGGCUG")
"Yes"
>>> qualitative_label("AUAUAGCAAUAUUACGACAC")
"Yes"
>>> qualitative_label("CAAUAGCAAUAUUACGACAU")
"No"
>>> qualitative_label("UCCCAGCAAUAUUACGUGGA")
"No"
>>> qualitative_label("UAAGAGCAAUAUUACGCGAA")
"No"
>>> qualitative_label("ACACAGCAAUAUUACGGUGC")
"No"
>>> qualitative_label("GGGCAGCAAUAUUACGCCAU")
"Yes"
>>> qualitative_label("ACACAGCAAUAUUACGCGUA")
"Yes"
>>> qualitative_label("CUUAAGCAAUAUUACGUUUC")
"No"
>>> qualitative_label("GGUUAGCAAUAUUACGAUCU")
"Yes"
>>> qualitative_label("GUCAAGCAAUAUUACGGCCC")
"Yes"
>>> qualitative_label("CCUCAGCAAUAUUACGACAC")
"No"
>>> qualitative_label("AUUGAGCAAUAUUACGUCCG")
"No"
>>> qualitative_label("ACGUAGCAAUAUUACGCCCG")
"Yes"
>>> qualitative_label("GCAAAGCAAUAUUACGAUUA")
"Yes"
>>> qualitative_label("CACAAGCAAUAUUACGCGUC")
"No"
